Values from the array DNA melting data of Ke et al. (doi:10.1101/2024.01.08.574731)

- method: melting temperature; fluorescence melt of hairpins on a sequencing array, two-state fit, raised by 9.35 °C to match UV melts
- test-settings: sodium 0.088 M
Field: label. Allowed values: T (Tm < 50 °C) or F (Tm >= 50 °C).

seq-text: GTAGCTGAAAAGCTAC ((((((....))))))
qualitative-label: F
//
seq-text: GGCCAGGGAAACCCAGCC (((..((....))..)))
qualitative-label: T
//
seq-text: GATCACTTGTGTGATC ((((((....))))))
qualitative-label: F
//
seq-text: GCGTTATAACGC ((((....))))
qualitative-label: F
//
seq-text: CGATGCGGAAACGCCTCG (((.(((....))).)))
qualitative-label: T
//
seq-text: GCGAGCGAAAGCTCACGC ((((((....)))..)))
qualitative-label: F
//
seq-text: GCGGACGTCCGC ((((....))))
qualitative-label: F
//
seq-text: GCTTTTGGAAACGAAAGC (((((.(....).)))))
qualitative-label: T
//
seq-text: GTTAAGACGAAAGTCAAC (((..(((....))))))
qualitative-label: T
//
seq-text: GCGATGAATCGC ((((....))))
qualitative-label: F
//
seq-text: GATCCCGCCTGGGATC ((((((....))))))
qualitative-label: F
//
seq-text: GTTCGCGGAAACGTGGAC ((.(.((....)).).))
qualitative-label: T
//
seq-text: GGCGACCGAAAGGTAGCC (((.(((....))).)))
qualitative-label: F
//
seq-text: GTGTTCCGAAAGGACAC (((.(((....))))))
qualitative-label: F
//
seq-text: GAGAAGGGAAACCCTCTC ((((.((....)).))))
qualitative-label: T
//
seq-text: GTGTGTGGAAACGCACAC (((((.(....).)))))
qualitative-label: F
//
seq-text: GATCATTGTTATGATC ((((((....))))))
qualitative-label: T
//
seq-text: GGATGCGAAAGCAGGTCC ((((((....)))..)))
qualitative-label: T
//
seq-text: GTAACCGAAAGGTACTAC ((((((....)))..)))
qualitative-label: T
//
seq-text: GAAATCGGAAACGACTTC (((.(((....))).)))
qualitative-label: T
//
seq-text: GATCGGCCCACCGATC ((((((....))))))
qualitative-label: F
//
seq-text: GCGGCTGGAAACGGCTGC ((.((.(....).)).))
qualitative-label: F
//
seq-text: GAATCTGGAAACAGATCC (.(((((....))))).)
qualitative-label: T
//
seq-text: TCGAGGAAACTCGA (((((....)))))
qualitative-label: T
//
seq-text: GCACCAGGAAACCAGTGC ((((..(....)..))))
qualitative-label: T
//
seq-text: GAACACGGAAACGTGTCC (.(((((....))))).)
qualitative-label: T
//
seq-text: GAATATGCGAAAGCATTC (((..(((....))))))
qualitative-label: T
//
seq-text: GGCATGCGAAAGCACGCC (((.(((....))).)))
qualitative-label: F
//
seq-text: GCTCGGCGAAAGCCAGGC ((..(((....)))..))
qualitative-label: F
//
seq-text: GTTAGACGAAAGTCAAC (((.(((....))))))
qualitative-label: T
//
seq-text: GGCTACGAAAGTAAGCC ((((((....))).)))
qualitative-label: F
//
seq-text: GGTGTAGGAAACTATACC (((.(((....))).)))
qualitative-label: T
//
seq-text: GATAGCGAAAGCTGAATC ((((((....)))..)))
qualitative-label: T
//
seq-text: GGTCTCGAAAGAGTGACC ((((((....)))..)))
qualitative-label: T
//
seq-text: GTTGCCGGAAACGGTGAC ((..(((....)))..))
qualitative-label: T
//
seq-text: GCACTAGGAAACTAGTGC (((((((....)))))))
qualitative-label: F
//
seq-text: GATCTATATCTAGATC ((((((....))))))
qualitative-label: T
//
seq-text: GGGTGCGGAAACGTGCCC (((..((....))..)))
qualitative-label: F
//
seq-text: GTTTACGAAAGTAAAAAC ((((((....)))..)))
qualitative-label: T
//
seq-text: GATAGTGGAAACATTATC ((((.((....)).))))
qualitative-label: T
//
seq-text: GTGACAACGAAAGTTCAC (((..(((....))))))
qualitative-label: T
//
seq-text: GAAGCCGAAAGGCTGTTC ((((((....)))..)))
qualitative-label: T
//
seq-text: GCTTCCACGAAAGTGAGC (((..(((....))))))
qualitative-label: T
